- STUDY_TARGET: thymidine phosphorylase (TP) enzyme (Escherichia coli)
- Construct: purchased Sigma Aldrich, USA
- Sequence (P07650 whole entry): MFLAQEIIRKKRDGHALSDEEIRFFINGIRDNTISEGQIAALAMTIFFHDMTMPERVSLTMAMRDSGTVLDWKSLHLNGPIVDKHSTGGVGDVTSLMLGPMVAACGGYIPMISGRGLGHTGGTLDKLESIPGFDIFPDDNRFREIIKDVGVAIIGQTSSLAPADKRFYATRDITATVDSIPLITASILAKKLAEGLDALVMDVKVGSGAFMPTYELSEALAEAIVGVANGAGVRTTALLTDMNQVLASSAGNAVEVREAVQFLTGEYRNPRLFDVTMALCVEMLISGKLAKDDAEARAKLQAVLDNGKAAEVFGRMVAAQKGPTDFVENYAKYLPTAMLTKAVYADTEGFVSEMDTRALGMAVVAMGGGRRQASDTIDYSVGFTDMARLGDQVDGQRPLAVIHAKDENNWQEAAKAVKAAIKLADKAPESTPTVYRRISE
- ASSAY_NOTES: Mechanistic (kinetic) studies on TP, Lineweaver-Burk plot and secondary re-plot
- Type: biochemical, E. coli
- MEASUREMENT_SETUP: thymidine 0.1875–1.5 mM, 30°C; secondary re-plot of Lineweaver-Burk plot; read-out: Ki ± SEM (dissociation constant)
ENDPOINT: pKi
Numbers only, as −log10 of the molar value.

Field: pKi. Fill in for each record below.
1. COc1cc2c(cc1OC)-c1c(OC)c(OC)cc3c1[C@H](C2)N(C)CC3
2. O=c1ccc2ccccc2o1
3. COc1cc2ccc(=O)oc2cc1O

Result block:
1: 3.74; 2: 3.77; 3: 3.38

Field: pKi. Fill in for each record below.
1. CC1(C)C=Cc2c(ccc3ccc(=O)oc23)O1
2. C[C@H](Cc1ccc(O)c(O)c1)[C@@H](C)Cc1ccc(O)c(O)c1
3. O=c1cc(-c2ccccc2)oc2ccccc12
4. COc1c(O)cc2oc(-c3ccc(O)c(O)c3)c(O)c(=O)c2c1O

Result block:
1: 3.79; 2: 4.59; 3: 3.65; 4: 3.47

---

- Tested on: mouse fibroblast (3T3) cell line
- ASSAY_NOTES: In vitro MTT cytotoxicity assay
- Type: cell-based
- MEASUREMENT_SETUP: 3T3 cells, 48 hrs incubation, read-out: Cytotoxicity IC50 (μM ± SD)
ENDPOINT: IC50 (µM)
One number for each entry, in µM.

Query block: State its IC50: C[C@@H]1C[C@@H]([C@H](O)CC2CC(=O)NC(=O)C2)C(=O)[C@@H](C)C1 [Cyclohexamide, cycloheximide, reference compound]
Result block: 0.2

---

- STUDY_TARGET: thymidine phosphorylase (TP), recombinant E. coli TP enzyme (Escherichia coli, UniProt P07650)
- Construct: purchased Sigma Aldrich, USA
- Sequence (P07650 whole entry): as above
- ASSAY_NOTES: Thymidine phosphorylase inhibition assay (spectrophotometric)
- Format: biochemical
- MEASUREMENT_SETUP: TP Inhibition IC50 (μM ± SEM), 1.5 mM thymidine, 30°C, pH 7.0, 290 nm, test compounds screened at 500 μM
Answer each item with its documented IC50.
Give bare numbers, in µM.

Field: IC50. Fill in for each record below.
1. COc1cc2ccc(=O)oc2cc1O[C@@H]1O[C@H](CO[C@@H]2OC[C@](O)(CO)[C@H]2O)[C@@H](O)[C@H](O)[C@H]1O [Compound 10]
2. O=C(O)/C=C/c1ccccc1 [Compound 15, Cinnamic acid]

Result block:
1. 295
2. 350
